# assay_text: Oral bioavailability in rat at 10 mg/kg
# Assay type: ADME, organism-based
# stated_conditions: in vivo
endpoint_label: bioavailability (%)

1. Nc1c(C(=O)c2ccc(F)cc2F)cc[n+]([O-])c1-c1ccccc1Cl
2. Cc1ccccc1-c1c(N)c(C(=O)c2ccc(F)cc2F)cc[n+]1[O-]
Q) Select the item with the higher value of bioavailability from the options 1 and 2 listed. Answer = label.
A) 2
(2: 75%, 1: 23%)

----------
# assay_text: Tmax in rat at 10 mg/kg, po
# Format: ADME, organism-based
# Design: dose 10 mg/kg, route oral
# stated_conditions: in vivo
endpoint_label: Tmax (h)

1. Nc1c(C(=O)c2ccc(F)cc2F)cc[n+]([O-])c1-c1ccccc1Cl
2. Cc1ccccc1-c1c(N)c(C(=O)c2ccc(F)cc2F)cc[n+]1[O-]
Q) Lower Tmax: 1 or 2 ? Lab log: write the label of the selected item as the result.
A) 2

----------
# assay_text: Clearance in rat at 1 mg/kg, iv
# Format: ADME, organism-based
# Set-up: dose 1 mg/kg, route intravenous
# stated_conditions: in vivo
endpoint_label: clearance (mL/min/kg)
# output: bare number, implied unit mL/min/kg

Q) Looking for the measured clearance of `Nc1c(C(=O)c2ccc(F)cc2F)cc[n+]([O-])c1-c1ccccc1Cl` , can you help?
A) 1.7

----------
# assay_text: Volume of distribution at steady state in rat at 1 mg/kg, iv
# Assay type: ADME, organism-based
# Set-up: dose 1 mg/kg, route intravenous
# stated_conditions: in vivo, read-out: Vdss
endpoint_label: Vd (L/kg)
Report as a plain number; the unit L/kg is understood.

Q) Vd lookup needed for `Nc1c(C(=O)c2ccc(F)cc2F)cc[n+]([O-])c1-c1ccccc1Cl` , thanks.
A) 1.8

----------
# assay_text: Volume of distribution at steady state in rat at 0.5 mg/kg, iv
# Assay type: ADME, organism-based
# Design: dose 0.5 mg/kg, route intravenous
# stated_conditions: in vivo, read-out: Vdss
endpoint_label: Vd (L/kg)
I only need the number, in L/kg, no unit after it.

Q) Look up Vd for this compound: `Cc1ccccc1-c1c(N)c(C(=O)c2ccc(F)cc2F)cc[n+]1[O-]`
A) 2.3

----------
# assay_text: Half life in rat at 1 mg/kg, iv
# Format: ADME, organism-based
# Design: dose 1 mg/kg, route intravenous
# stated_conditions: in vivo
endpoint_label: half-life (h)
Give just the number in h; leave the unit off.

Q) Returns the measured half-life for the input molecule. Input: `Nc1c(C(=O)c2ccc(F)cc2F)cc[n+]([O-])c1-c1ccccc1Cl`
A) 14.8

----------
# assay_text: Solubility at pH 7.4
# Assay type: physicochemical
# stated_conditions: buffer
endpoint_label: solubility (µg/mL)

Example entries begin here.
>>> readout_value("Cc1cccc(C)c1-c1c(N)c(C(=O)c2ccc(F)cc2F)cc[n+]1[O-]")
69
>>> readout_value("Cc1ccccc1-c1c(N)c(C(=O)c2ccc(F)cc2F)cc[n+]1[O-]")
63
>>> readout_value("COCCOc1ccc(-c2c(N)c(C(=O)c3ccc(F)cc3F)cc[n+]2[O-])c(C)c1")
67
>>> readout_value("Cc1cc(OCCN2CCOCC2)ccc1-c1c(N)c(C(=O)c2ccc(F)cc2F)cc[n+]1[O-]")
51
>>> readout_value("COCCNC(=O)c1ccc(-c2c(N)c(C(=O)c3ccc(F)cc3F)cc[n+]2[O-])c(C)c1")
46

a. Nc1c(C(=O)c2ccc(F)cc2F)cc[n+]([O-])c1-c1ccccc1Cl
b. Nc1c(C(=O)c2ccc(F)cc2F)cc[n+]([O-])c1-c1c(F)cccc1F
c. Cc1cc(O)ccc1-c1c(N)c(C(=O)c2ccc(F)cc2F)cc[n+]1[O-]
Q) Hey, quick one: sort these by solubility, largest value first please. List the labels according to the requested ordering.
A) a, c, b
(a: 59 µg/mL, c: 37 µg/mL, b: 4 µg/mL)
